Cited source for all entries: patent US7563813B2

# assayed.system: hSFRP-1 (Homo sapiens, UniProt Q8N474)
# Construct: expressed in transfected cells; host or cells: U2OS osteosarcoma cells (ATCC, HTB 96), transient co-transfection with Wnt 3, Wnt3A or Wnt 1, 16x TCF-tk-Luciferase reporter and CMV-beta-gal
# Sequence (Q8N474 32-314): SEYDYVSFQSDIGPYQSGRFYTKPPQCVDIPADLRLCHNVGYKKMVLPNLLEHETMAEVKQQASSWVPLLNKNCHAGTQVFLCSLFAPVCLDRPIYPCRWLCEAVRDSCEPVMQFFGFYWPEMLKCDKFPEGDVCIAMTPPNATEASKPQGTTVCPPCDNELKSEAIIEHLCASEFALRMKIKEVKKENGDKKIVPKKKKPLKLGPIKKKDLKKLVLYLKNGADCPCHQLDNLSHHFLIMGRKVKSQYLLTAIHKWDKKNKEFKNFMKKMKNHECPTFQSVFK
# protocol.text: Cell-Based Assay for In Vitro Measurement of SFRP-1/SARP2 Antagonist Activity (U2OS cells, 16x TCF-tk-Luciferase reporter, Wnt + hSFRP-1 co-transfection)
# details: initial single dose screening at 10 μM, ratio not defined
Record form. Attribute: Ratio. Fill in for each entry.
// print number alone

Name the recorded Ratio of the molecule listed here: N=C1NC(=O)C(CC(=O)Nc2cccc(F)c2)S1 (centres unmarked) 1.3

Name the recorded Ratio of the molecule listed here: C#Cc1cccc(NC(=O)CC2SC(=N)NC2=O)c1 (centres unmarked) 1.6

Name the recorded Ratio of the molecule listed here: CCOC(=O)c1c(-c2ccco2)csc1NC(=O)CC1SC(=N)NC1=O (centres unmarked) 1.0

Name the recorded Ratio of the molecule listed here: CCOC(=O)c1c(C)csc1NC(=O)CC1SC(=N)NC1=O (centres unmarked) 1.9

Name the recorded Ratio of the molecule listed here: CC(=O)Nc1cccc(NC(=O)CC2SC(=N)NC2=O)c1 (centres unmarked) 1.2

Name the recorded Ratio of the molecule listed here: N=C1NC(=O)C(CC(=O)Nc2ccc(F)c(Cl)c2)S1 (centres unmarked) 1.7

Name the recorded Ratio of the molecule listed here: COC(=O)c1cc(-c2ccc(Cl)cc2)sc1NC(=O)CC1SC(=N)NC1=O (centres unmarked) 0.8

Name the recorded Ratio of the molecule listed here: COC(=O)c1c(NC(=O)CC2SC(=N)NC2=O)sc2c1CCCC2 (centres unmarked) 1.4

Name the recorded Ratio of the molecule listed here: N=C1NC(=O)C(CC(=O)Nc2ccccc2)S1 (centres unmarked) 1.0

Name the recorded Ratio of the molecule listed here: N=C1NC(=O)C(CC(=O)NCc2ccccc2C(F)(F)F)S1 (centres unmarked) 1.1

Name the recorded Ratio of the molecule listed here: N=C1NC(=O)C(CC(=O)NCc2cccc(Cl)c2)S1 (centres unmarked) 1.0

Name the recorded Ratio of the molecule listed here: N=C1NC(=O)C(CC(=O)Nc2cccc(OC(F)(F)F)c2)S1 (centres unmarked) 1.5

Name the recorded Ratio of the molecule listed here: CCOC(=O)c1c(NC(=O)CC2SC(=N)NC2=O)sc(Br)c1C (centres unmarked) 2.6

Name the recorded Ratio of the molecule listed here: CCOC(=O)c1c(NC(=O)CC2SC(=N)NC2=O)sc(Br)c1CN(C)c1ccc(Cl)cc1 (centres unmarked) 1.0

Name the recorded Ratio of the molecule listed here: N=C1NC(=O)C(CC(=O)Nc2sc3c(c2C(N)=O)CCCC3)S1 (centres unmarked) 1.1

Name the recorded Ratio of the molecule listed here: CCOC(=O)c1c(NC(=O)CC2SC(=N)NC2=O)sc(-c2ccccc2)c1C (centres unmarked) 0.7

Name the recorded Ratio of the molecule listed here: N=C1NC(=O)C(CC(=O)NCc2ccc(C(F)(F)F)cc2)S1 (centres unmarked) 1.0

Name the recorded Ratio of the molecule listed here: N=C1NC(=O)C(CC(=O)NCc2ccc(Cl)cc2)S1 (centres unmarked) 1.0

Name the recorded Ratio of the molecule listed here: N=C1NC(=O)C(CC(=O)Nc2cccc(F)c2F)S1 (centres unmarked) 1.0

Name the recorded Ratio of the molecule listed here: CCOC(=O)c1c(NC(=O)CC2SC(=N)NC2=O)sc(Br)c1CBr (centres unmarked) 1.4
